Reference source for all entries: ChEMBL document CHEMBL5727633

- Target or test system: Bromodomain-containing protein 4 (Homo sapiens, UniProt O60885)
- Measurement protocol: In Vitro Enzyme Inhibition Assay-BRD4 Inhibition: Inhibition of BRD4 was determined as described previously. See, e.g., U.S. Pat. No. 9,034,900.
pIC50: −log10 of the molar value.
Measurement type: pIC50

Reported pIC50 for `Cn1cc(-c2cnn(CC3CC3)c2)c(-c2ccc(C(=O)O)cc2)cc1=O` : what is it? < 5.30
